Reported LC50 values for a set of compounds
# Tested on: Nippostrongylus brasiliensis
# EXPERIMENTAL PROTOCOL: Anthelmintic activity against Nippostrongylus brasiliensis
# Format: functional
Kindly provide the numeric value in µM only, without the unit symbol.

Lab note: C=CCC1COC(C(C)(C)C(C/C=C\CNC(=O)OC)OC(C)=O)=N1 (centres undefined) gave LC50 of 40

LC50 reported for this compound `CCCSc1ccc2[nH]c(NC(=O)OC)nc2c1` : 0.34

Lookup result for C=CC/C=C\C[C@@H]1COC(C(C)(C)C(C/C=C\CNC(=O)OC)OC(C)=O)=N1 (some centres undefined) ; measured LC50: 40

###

Recorded measurements of IG50, one per entry
# Test system: HCT-15
# EXPERIMENTAL PROTOCOL: Cytotoxicity against HCT15 cell line by SRB assay
# Type: functional, Homo sapiens
Give the value, in units of µM, as a plain number.

[
  {
    "COMPOUND": "C=CC/C=C\\C[C@@H]1CSC(C(C)(C)C(O)C/C=C\\CNC(=O)OC)=N1 (some centres undefined)",
    "ASSAYED SYSTEM": "HCT-15",
    "UNIT ANNOTATION": "µM",
    "REPORTED MEASUREMENT": 13
  },
  {
    "COMPOUND": "C=CCC1COC(C(C)(C)C(C/C=C\\CNC(=O)OC)OC(C)=O)=N1 (centres undefined)",
    "ASSAYED SYSTEM": "HCT-15",
    "UNIT ANNOTATION": "µM",
    "REPORTED MEASUREMENT": 430
  },
  {
    "COMPOUND": "C=CC/C=C\\C[C@@H]1COC(C(C)(C)C(C/C=C\\CNC(=O)OC)OC(C)=O)=N1 (some centres undefined)",
    "ASSAYED SYSTEM": "HCT-15",
    "UNIT ANNOTATION": "µM",
    "REPORTED MEASUREMENT": 150
  }
]

So, `CO[C@@]12[C@H](COC(N)=O)C3=C(C(=O)C(C)=C(N)C3=O)N1C[C@@H]1N[C@@H]12` ? Its IG50 was 1.6
